# experiment-summary: Pharmacokinetic evaluation following a single oral and intravenous administration
# Assay type: in vivo, CD1 mouse
# test-parameters: CD1, mouse, plasma, po, 5 mg/kg, Table 6, PO Dose: 5 mg/kg, Mouse 6; read-out: AUCInf
metric-name: AUC(0-inf) (ng·h/mL)
Give bare numbers, in ng·h/mL.

Ask: State its AUC(0-inf): CNCc1ccc(C[C@H](NC(C)=O)c2nnc(-c3cccc(OC(F)(F)F)c3)s2)cc1
Reply: 2380

###

# experiment-summary: Pharmacokinetic evaluation following a single oral and intravenous administration
# Type: in vivo, CD1 mouse
# test-parameters: CD1, mouse, plasma, iv, 1 mg/kg, Table 9, IV Dose: 1 mg/kg, 5 min, Mouse 3; read-out: Concentration
metric-name: concentration at 5 min (ng/mL)
Numbers only, in ng/mL.

Ask: Look up and state reported concentration at 5 min for CC(=O)N[C@@H](Cc1ccc(CN(C)C)cc1)c1nnc(-c2cccc(OC(F)(F)F)c2)s1 [Compound 42320]
Reply: 85.7

###

# experiment-summary: Pharmacokinetic evaluation following a single oral and intravenous administration
# Type: in vivo, CD1 mouse
# test-parameters: CD1, mouse, plasma, iv, 1 mg/kg, Table 4, IV Dose: 1 mg/kg, Mouse 3; read-out: MRTInf—obs
metric-name: MRT inf (h)
Numbers only, in h.

Ask: For the compound CNCc1ccc(C[C@H](NC(C)=O)c2nnc(-c3cccc(OC(F)(F)F)c3)s2)cc1 , give its reported MRT inf.
Reply: 9.69

###

# experiment-summary: Pharmacokinetic evaluation following a single oral and intravenous administration
# Assay type: in vivo, CD1 mouse
# test-parameters: CD1, mouse, plasma, iv, 1 mg/kg, Table 4, IV Dose: 1 mg/kg, Mouse 2; read-out: AUClast
metric-name: AUC(0-t) (ng·h/mL)
Give bare numbers, in ng·h/mL.

Ask: Entry CNCc1ccc(C[C@H](NC(C)=O)c2nnc(-c3cccc(OC(F)(F)F)c3)s2)cc1 needs its AUC(0-t) filled in; supply it.
Reply: 389

###

# experiment-summary: Pharmacokinetic evaluation following a single oral and intravenous administration
# Format: in vivo, CD1 mouse
# test-parameters: CD1, mouse, plasma, po, 5 mg/kg, Table 11, PO Dose: 5 mg/kg, 8 h, mean; read-out: Concentration, Mean
metric-name: concentration at 8 h (ng/mL)
Give bare numbers, in ng/mL.

Ask: Give the reported value of concentration at 8 h for this record: CC(=O)N[C@@H](Cc1ccc(CN(C)C)cc1)c1nnc(-c2cccc(OC(F)(F)F)c2)s1
Reply: 41.2

###

# experiment-summary: Pharmacokinetic evaluation following a single oral and intravenous administration
# Type: in vivo, CD1 mouse
# test-parameters: CD1, mouse, plasma, po, 5 mg/kg, Table 11, PO Dose: 5 mg/kg, 0.5 h, Mouse 4; read-out: Concentration
metric-name: concentration at 0.5 h
Answer as a quantity: numeral, then unit.

Ask: Annotate the compound CC(=O)N[C@@H](Cc1ccc(CN(C)C)cc1)c1nnc(-c2cccc(OC(F)(F)F)c2)s1 with its measured concentration at 0.5 h.
Reply: 201 ng/mL

###

# experiment-summary: Pharmacokinetic evaluation following a single oral and intravenous administration
# Assay type: in vivo, CD1 mouse
# test-parameters: CD1, mouse, plasma, iv, 1 mg/kg, Table 10, IV Dose: 1 mg/kg, Mouse 3
metric-name: C0 (ng/mL)
Give bare numbers, in ng/mL.

Ask: Indicate the recorded C0 value for this compound: CC(=O)N[C@@H](Cc1ccc(CN(C)C)cc1)c1nnc(-c2cccc(OC(F)(F)F)c2)s1 [Compound 42320]
Reply: 96
